Reference source: paper PMC5485019

Test system: F10T (DNA, hairpin, hexaethylene glycol (HEG, (-CH2CH2O-)6) linker between nucleotides 10 and 11) TATAGCTATATATAGCTATA
Assay: FRET melting
Conditions: 10 mM KCl, 90 mM LiCl; 10 mM Li cacodylate; 1 μM ligand, 200 nM DNA
measurement type: ΔT max (°C)

Use these answered entries as a reference point.
cpd smiles	units of measure	quantitative result
Cn1cc[n+](CCCN2C(=O)c3ccc4c5c(ccc(c35)C2=O)C(=O)N(CCC[n+]2ccn(C)c2)C4=O)c1	°C	0.1
CN1CCN(CCCN2C(=O)c3ccc4c5c(ccc(c35)C2=O)C(=O)N(CCCN2CCN(C)CC2)C4=O)CC1	°C	0.3

P: Cn1cc[n+](CCN2C(=O)c3ccc4c5c(ccc(c35)C2=O)C(=O)N(CC[n+]2ccn(C)c2)C4=O)c1
Q: Cn1cc[n+](C[C@H]2O[C@@H](OCCN3C(=O)c4ccc5c6c(ccc(c46)C3=O)C(=O)N(CCO[C@@H]3O[C@H](C[n+]4ccn(C)c4)[C@@H](O)[C@H](O)[C@H]3O)C5=O)[C@H](O)[C@@H](O)[C@@H]2O)c1
-- ask I'm curious, which of these has a smaller ΔT max number: P or Q ? In your reply, give the label of the chosen option.
-- reply Q
(Q: 0.1 °C, P: 0.4 °C)

###

Tested on: FMycT (F-Myc-T) (DNA, G4) TTGAGGGTGGGTAGGGTGGGTAA
Assay: FRET melting
Conditions: 1 mM KCl, 99 mM LiCl; 10 mM Li cacodylate; 1 μM ligand, 200 nM DNA
measurement type: ΔT max (°C)

cpd smiles	quantitative result
Cn1cc[n+](CCN2C(=O)c3ccc4c5c(ccc(c35)C2=O)C(=O)N(CC[n+]2ccn(C)c2)C4=O)c1	1

a: Cn1cc[n+](CCCN2C(=O)c3ccc4c5c(ccc(c35)C2=O)C(=O)N(CCC[n+]2ccn(C)c2)C4=O)c1
b: Cn1cc[n+](C[C@H]2O[C@@H](OCCN3C(=O)c4ccc5c6c(ccc(c46)C3=O)C(=O)N(CCO[C@@H]3O[C@H](C[n+]4ccn(C)c4)[C@@H](O)[C@H](O)[C@H]3O)C5=O)[C@H](O)[C@@H](O)[C@@H]2O)c1
c: CN1CCN(CCCN2C(=O)c3ccc4c5c(ccc(c35)C2=O)C(=O)N(CCCN2CCN(C)CC2)C4=O)CC1
-- ask Order the items by recorded ΔT max; the first position goes to the largest value. Please express your ranking as an ordered list of the labels.
-- reply a, b, c

###

Tested on: F21T (DNA, G4) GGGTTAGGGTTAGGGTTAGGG
Assay: FRET melting
Conditions: 10 mM KCl, 90 mM LiCl; 10 mM Li cacodylate; 1 μM ligand, 200 nM DNA
measurement type: ΔT max (°C)

cpd smiles	units of measure	ΔT max
Cn1cc[n+](C[C@H]2O[C@@H](OCCN3C(=O)c4ccc5c6c(ccc(c46)C3=O)C(=O)N(CCO[C@@H]3O[C@H](C[n+]4ccn(C)c4)[C@@H](O)[C@H](O)[C@H]3O)C5=O)[C@H](O)[C@@H](O)[C@@H]2O)c1	°C	2.9

a: Cn1cc[n+](CCCN2C(=O)c3ccc4c5c(ccc(c35)C2=O)C(=O)N(CCC[n+]2ccn(C)c2)C4=O)c1
b: CN(C)CCCN1C(=O)c2ccc3c4c(ccc(c24)C1=O)C(=O)N(CCCN(C)C)C3=O
c: Cn1cc[n+](CCN2C(=O)c3ccc4c5c(ccc(c35)C2=O)C(=O)N(CC[n+]2ccn(C)c2)C4=O)c1
-- ask Returns the items ordered by ΔT max, from maximum to minimum. Return value: ordered labels per request.
-- reply a, b, c
